These data points were gathered from patent US6525001B1.

- Tested on: pigweed (Amaranthus retroflexus)
- protocol.notes: Test B pre-/postemergence
- Assay type: in vivo
- Set-up: key: 0 is no effect; 10 is complete control
- run.conditions: Rate 125 g/ha, Postemergence
Binary call on Plant response rating, Redroot pigweed with cut-off 7: strictly below means label 1, and equality or higher means label 0.

Past entries and their recorded results:
Lookup: Input "CCc1cnc(-c2ccc(C(F)(F)F)cc2)nc1Cc1cccc(C(F)(F)F)c1" ; condition: Plant response rating, Redroot pigweed strictly below 7. Does it hold?
Found: label 0

Lookup: Input "Cc1cnc(-c2ccccc2)nc1Cn1ccc(C(F)(F)F)n1" ; condition: Plant response rating, Redroot pigweed strictly below 7. Does it hold?
Found: label 1

Lookup: Input "Cc1cnc(-c2ccc(C(F)(F)F)cc2)nc1Cn1cnc(C(F)(F)F)c1" ; condition: Plant response rating, Redroot pigweed strictly below 7. Does it hold?
Found: label 0

***
Lookup: Input Cc1cnc(-c2ccc(C(F)(F)F)cc2)nc1C(C)c1cccc(C(F)(F)F)c1 (racemic) ; condition: Plant response rating, Redroot pigweed strictly below 7. Does it hold?
Found: label 1

Lookup: Input "COc1cnc(-c2ccc(C(F)(F)F)cc2)nc1Cc1cccc(C(F)(F)F)c1" ; condition: Plant response rating, Redroot pigweed strictly below 7. Does it hold?
Found: label 0

Lookup: Input Cc1cnc(-c2ccc(C(F)(F)F)cc2)nc1C(Cl)c1cccc(C(F)(F)F)c1 (racemic) ; condition: Plant response rating, Redroot pigweed strictly below 7. Does it hold?
Found: label 0
